Below is a list of entries, each paired with its recorded AC50 value.
- TARGET ENTITY: Cytochrome P450 2C19 (Homo sapiens, UniProt P33261)
- Sequence (P33261 whole entry): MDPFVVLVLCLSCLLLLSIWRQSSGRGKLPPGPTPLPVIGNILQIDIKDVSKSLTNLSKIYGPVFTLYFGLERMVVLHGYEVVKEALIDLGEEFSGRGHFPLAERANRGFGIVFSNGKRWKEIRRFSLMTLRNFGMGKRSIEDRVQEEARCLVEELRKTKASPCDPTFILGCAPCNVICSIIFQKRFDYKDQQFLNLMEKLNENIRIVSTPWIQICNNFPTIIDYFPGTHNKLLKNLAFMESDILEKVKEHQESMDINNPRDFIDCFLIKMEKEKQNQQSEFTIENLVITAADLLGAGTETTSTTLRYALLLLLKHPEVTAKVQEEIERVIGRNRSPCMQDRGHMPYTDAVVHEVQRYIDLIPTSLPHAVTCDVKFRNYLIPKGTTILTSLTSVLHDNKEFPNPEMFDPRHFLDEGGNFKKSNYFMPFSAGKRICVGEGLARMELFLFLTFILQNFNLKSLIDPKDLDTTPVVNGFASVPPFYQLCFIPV
- ASSAY METHOD TEXT: Cytochrome panel assay with activity outcomes. Panel member name: p450-cyp2c19 Compounds with AC50 equal or less than 10 uM are considered active
- Format: functional
- STUDY CONDITIONS: read-out: AC50

Examples with their reported AC50 follow.
O=C(C1CC(=O)N(C2CCCC2)C1)N1CCC2(CC1)OCCO2 (stereo unspecified): 39.8 µM (inconclusive)
CC(=O)/N=C1\C(=O)N(C)c2cccc3c(O)c4ccccc4c1c23: 14.1 µM (inconclusive)
O=C(Nc1ccnc(-c2cccnc2)n1)c1ccccc1Cl: 14.1 µM (inconclusive)

Q: Any idea what its AC50 is? The compound is O=C(NNC(=O)c1cc2cc3ccccc3nc2s1)c1cccc(Cl)c1
Result: 5.01 µM (inconclusive)

Q: Thanks! And COC(=O)c1cc(Br)c(=O)n(CCN2CCCC2)c1 ?
Result: 39.8 µM (inconclusive)

Q: Thanks! And Cc1cc(C)c2c(N)c3ccccc3nc2n1 ?
Result: 5.62 µM (inconclusive)

====

- TARGET ENTITY: Voltage-gated inwardly rectifying potassium channel KCNH2 (Homo sapiens, UniProt Q12809);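 also: confirmatory quantitative high-throughput screen measuring inhibition of hERG channel activity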
- Sequence (Q12809 whole entry): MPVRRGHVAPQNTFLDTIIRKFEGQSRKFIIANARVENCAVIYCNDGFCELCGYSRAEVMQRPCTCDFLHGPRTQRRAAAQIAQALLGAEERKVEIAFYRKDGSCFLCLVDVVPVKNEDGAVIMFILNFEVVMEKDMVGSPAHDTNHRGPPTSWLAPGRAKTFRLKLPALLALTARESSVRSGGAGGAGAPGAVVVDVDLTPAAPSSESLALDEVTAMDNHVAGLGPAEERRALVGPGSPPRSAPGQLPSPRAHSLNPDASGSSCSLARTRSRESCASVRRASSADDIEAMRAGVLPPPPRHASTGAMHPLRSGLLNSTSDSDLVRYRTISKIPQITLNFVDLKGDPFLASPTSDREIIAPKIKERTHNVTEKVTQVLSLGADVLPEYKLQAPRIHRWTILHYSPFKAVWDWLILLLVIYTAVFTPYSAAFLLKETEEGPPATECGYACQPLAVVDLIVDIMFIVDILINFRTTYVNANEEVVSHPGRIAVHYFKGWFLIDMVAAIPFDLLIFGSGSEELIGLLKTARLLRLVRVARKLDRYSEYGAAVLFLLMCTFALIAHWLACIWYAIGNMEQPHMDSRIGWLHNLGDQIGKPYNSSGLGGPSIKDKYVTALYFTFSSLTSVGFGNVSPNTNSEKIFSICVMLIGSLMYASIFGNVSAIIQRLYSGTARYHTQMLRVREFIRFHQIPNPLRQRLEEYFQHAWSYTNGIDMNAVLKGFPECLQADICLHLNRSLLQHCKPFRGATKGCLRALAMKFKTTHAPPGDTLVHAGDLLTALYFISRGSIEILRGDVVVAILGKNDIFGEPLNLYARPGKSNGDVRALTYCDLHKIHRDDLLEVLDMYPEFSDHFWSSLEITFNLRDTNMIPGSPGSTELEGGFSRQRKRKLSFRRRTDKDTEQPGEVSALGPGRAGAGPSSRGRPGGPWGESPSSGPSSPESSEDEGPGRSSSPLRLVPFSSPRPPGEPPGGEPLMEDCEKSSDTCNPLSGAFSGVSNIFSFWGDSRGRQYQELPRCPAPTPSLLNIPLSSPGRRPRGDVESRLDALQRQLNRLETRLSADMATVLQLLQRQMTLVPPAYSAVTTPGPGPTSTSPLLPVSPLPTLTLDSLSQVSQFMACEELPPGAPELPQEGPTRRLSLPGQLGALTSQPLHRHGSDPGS
- STUDY CONDITIONS: Potency
Below is a list of entries, each paired with its recorded AC50 value.

Examples with their reported AC50 follow.
CN1CCC23CCCC[C@H]2C1Cc1ccc(O)cc13 (some centres undefined): 2.51 µM (inconclusive)
C/C=C1/C(=O)C[C@H]2[C@@H]3CCC4=CC(=O)CC[C@]4(C)[C@H]3CC[C@]12C: 17.8 µM (inconclusive)
Brc1ccc(Oc2ccc(Br)cc2Br)c(Br)c1: 17.8 µM (inconclusive)

Turning now to a further record.
Q: Any idea what its AC50 is? The compound is COc1ccc(-n2nc(C(F)(F)F)cc2-c2ccc(Cl)cc2)cc1
Result: 31.6 µM (inconclusive)

====

- TARGET ENTITY: Calpain-2 catalytic subunit (Sus scrofa)
- Sequence (P43367 whole entry): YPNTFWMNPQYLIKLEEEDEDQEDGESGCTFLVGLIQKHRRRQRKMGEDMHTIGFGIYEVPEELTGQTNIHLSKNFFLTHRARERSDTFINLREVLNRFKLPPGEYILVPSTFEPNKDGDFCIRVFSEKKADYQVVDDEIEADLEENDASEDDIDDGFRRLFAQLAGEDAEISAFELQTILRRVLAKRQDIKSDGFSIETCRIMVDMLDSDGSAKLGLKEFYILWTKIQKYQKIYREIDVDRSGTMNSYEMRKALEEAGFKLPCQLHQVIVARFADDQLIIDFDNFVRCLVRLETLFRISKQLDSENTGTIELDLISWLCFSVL
- ASSAY METHOD TEXT: m-calpain protease blockers, concentration series – biochemical, fluorogenic peptide substrate, dose response (AID 1420)
- Type: functional
Below is a list of entries, each paired with its recorded IC50 value.

Examples with their reported IC50 follow.
O=C1c2ccccc2C(=O)N1CCCCCc1nc(-c2ccccc2)no1: 3.34 µM (not active)
COc1ccc(C2=Nn3c(nnc3-c3ccco3)SC2)cc1: 9.61 µM (not active)
COc1ccc(C(=O)N2c3cc4c(cc3C(C)=CC2(C)C)OCO4)cc1: 6.36 µM (not active)

Q: Any idea what its IC50 is? The molecule is Oc1ccc(C[C@@H]2CN=C(S)N2CCCCC2CCCCC2)cc1
Result: 12.2 µM (not active)

Q: Thanks! And Cc1c(O)ccc(C(=O)CN2C(=O)c3ccccc3C2=O)c1O ?
Result: 7.96 µM (not active)

Q: Thanks! And COc1ccc(C(=O)Nc2cc(C)ccc2NC(=O)COc2ccccc2)cc1 ?
Result: 1.51 µM (not active)

Q: Thanks! And Cn1c(NCc2ccco2)nc2c1c(=O)n(Cc1ccc(Cl)c(Cl)c1)c(=O)n2C ?
Result: 4.09 µM (not active)

Q: Thanks! And O=C1c2ccc(Br)cc2C(=O)N1c1ccc(Cc2ccncc2)cc1 ?
Result: 4.86 µM (not active)

Q: Thanks! And CCOC(=O)c1cnc(-n2nc(C)cc2C)nc1Nc1ccc(C)cc1 ?
Result: 5.74 µM (not active)
